Data origin: the supplement of paper PMC5412046

# System: SB.msgc-1
# method: viability at highest tested concentration (MAXR) relative to DMSO; higher = less cytotoxic
# recorded-conditions: SB.msgc-1 (sporadic gastric cancer)
Structures can show the parent of a compound that is named as a salt.
recorded-endpoint: viability (%)
One number for each entry, in %.

Please review the entries below; each comes with its answer.
CCC(=O)OCC(=O)[C@@]1(OC(=O)CC)[C@@H](C)C[C@H]2[C@@H]3CCC4=CC(=O)C=C[C@]4(C)[C@@]3(F)[C@@H](O)C[C@@]21C [Betamethasone dipropionate] (top concentration 46.0829 µM) : 89.9
OC(Cn1cncn1)(Cn1cncn1)c1ccc(F)cc1F [Fluconazole] (top concentration 46.0829 µM) : 106
CC[C@]1(O)C[C@@H]2CN(CCc3c([nH]c4ccccc34)[C@@](C(=O)OC)(c3cc4c(cc3OC)N(C)[C@H]3[C@@](O)(C(N)=O)[C@H](O)[C@]5(CC)C=CCN6CC[C@]43[C@@H]65)C2)C1 [Vindesine sulfate] (top concentration 46.0829 µM) : 40.5
CC12CC3CC(C)(C1)CC(N)(C3)C2 [Memantine hydrochloride] (top concentration 46.0829 µM) : 3.88

Proceed to the following item.
Task item: Provide viability, tested on SB.msgc-1, for Cn1cnc2c(F)c(Nc3ccc(Br)cc3F)c(C(=O)NOCCO)cc21 [ARRY-162] (top concentration 46.0829 µM) .
Reply: 80.5

====

Assignment: determine reported viability for the given molecules.
# System: SB.msgc-1
# method: viability at highest tested concentration (MAXR) relative to DMSO; higher = less cytotoxic
# recorded-conditions: SB.msgc-1 (sporadic gastric cancer)
One number for each entry, in %.

Provide viability for all items below, preserving their order.
1. COCCOC(=O)C/1=C(C)/NC/2=C(C1C3=CC=CC(=C3)O)/C(=O)CC(C2)C4=C(OC)C=CC=C4 (stereo not given) [HPI-1] (top concentration 46.0829 µM)
2. Oc1ccc(C2CCN(c3ccnc4ccccc34)CC2)cc1O (top concentration 46.0829 µM)
3. O=C(NCCCCN1CCOCC1)c1cc2ccccc2o1 (top concentration 46.0829 µM)
4. CN1CC/C(CC1)=C3\c4ccccc4CC(=O)c2sccc23 [Ketotifen] (top concentration 46.0829 µM)
5. Cc1cnc(Nc2ccc(OCCN3CCCC3)cc2)nc1Nc1cccc([S+](=O)([O-])NC(C)(C)C)c1 (top concentration 46.0829 µM)

Reply:
[34.1, 74.5, 101, 9, 106]

====

Assignment: determine reported area under the dose-response curve for the given compounds.
# Tested on: SB.msgc-1
# method: area under the dose-response curve of % viability (trapezoidal, 11 doses) (% viability x log10 concentration); higher = less cytotoxic
# recorded-conditions: SB.msgc-1 (sporadic gastric cancer)
Counter-ions that a name gives are not always drawn.
Give bare numbers.

Provide area under the dose-response curve for all items below, preserving their order.
1. CCCCc1oc2ccc(NS(C)(=O)=O)cc2c1C(=O)c1ccc(OCCCN(CCCC)CCCC)cc1 [Dronedarone] (top concentration 46.0829 µM)
2. CCOC(=O)C(C)(C)Oc1ccc(Cl)cc1 [Clofibrate] (top concentration 46.0829 µM)
3. CN(C)CC(=O)N1CCC(CC1)C2=CC=C(NC(=O)C3=NC(=C[NH]3)C#N)C(=C2)\C4=C\CCCC4 (top concentration 46.0829 µM)
4. CN(C)C(=O)C(CCN1CCC(O)(c2ccc(Cl)cc2)CC1)(c1ccccc1)c1ccccc1 [Loperamide hydrochloride] (top concentration 46.0829 µM)
5. COc1nc(C)cnc1N[S+](=O)([O-])c1cccnc1-c1ccc(-c2nnco2)cc1 [Zibotentan] (top concentration 46.0829 µM)

Reply:
1. 512
2. 515
3. 448
4. 525
5. 589

Task item: Check the records and state area under the dose-response curve for CC[C@H](C)C(=O)O[C@H]1C[C@H](O)\C=C2\C=C/[C@H](C)[C@H](CC[C@@H](O)C[C@@H](O)CC(O)=O)[C@@H]12 [Pravastatin sodium] (top concentration 46.0829 µM)
Reply: 525
